Assay: NCI Yeast Anticancer Drug Screen. Data for the cln2 rad14 strain (AID 165);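 further: 0% = growth equal to vehicle treated cultures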
Conditions: S. cerevisiae cln2 rad14 strain, at 50.0 µM, stronger effect = higher value
Procedure: Growth inhibition of yeast strains with defined genetic alterations is measured as a screen for potential anti-cancer activity. Selected strains with alterations in DNA damage repair or cell cycle control were exposed to compounds and growth inhibition was measured relative to vehicle treated controls. The strain used in this assay is cln2 rad14
This is part of a sample that, as a whole, favours compounds with a hit. Of some 79,000 tested, about 15% had one in any assay.
Listing of entries alongside the reported growth inhibition.
Dear colleague, please return just the value in %, with no unit written.

Could you tell me which growth inhibition is on file for N#CCN(CC#N)[N+](=O)[O-] ? -6

Could you tell me which growth inhibition is on file for CC(=O)OC1CCC2(C)C(CCC3C2CCC2(C)C3CC(CC(=O)O)C2OC(C)=O)C1 (centres undefined) ? -0.5

Could you tell me which growth inhibition is on file for COC(=O)C1(F)C(=O)NC(=O)NC1O (centres undefined) ? 14.7

Could you tell me which growth inhibition is on file for CCCOP(=O)(OCCC)C(=O)Nc1ccc(Br)cc1 ? -24.1

Could you tell me which growth inhibition is on file for Cc1ccc(S(N)(=O)=O)cc1 ? -8.25

Could you tell me which growth inhibition is on file for Nc1cc([N+](=O)[O-])cc([N+](=O)[O-])c1 ? 4.9

Could you tell me which growth inhibition is on file for Cn1cnnc1N ? 4.4

Could you tell me which growth inhibition is on file for O=C1CC2(CCNCC2)C(=O)N1N1CCCCC1 ? 7.15

Could you tell me which growth inhibition is on file for O=S(=O)(O)C1CCC(O)C2[N-]CCCC21.O=S(=O)(O)C1CCC(O)C2[N-]CCCC21.[Zn+2] (centres undefined) ? 25.8

Could you tell me which growth inhibition is on file for [Cl][Sn]1([Cl])[CH2]CC[CH2][Sn]([Cl])([Cl])[CH2]CC[CH2]1 ? 39.4

Could you tell me which growth inhibition is on file for CCNP(=O)(OCC)OCC ? 24.4

Could you tell me which growth inhibition is on file for O=C(NCCc1ccccn1)c1ccc2cc(C(=O)N3CC(CCl)c4ccc([N+](=O)[O-])cc43)[nH]c2c1 (centres undefined) ? 12.4

Could you tell me which growth inhibition is on file for CCC(=O)C(CC(C)[N+](C)(C)C)(c1ccccc1)c1ccccc1 (centres undefined) ? 3.35

Could you tell me which growth inhibition is on file for C=CCOCC1CO1 (centres undefined) ? -8.6

Could you tell me which growth inhibition is on file for Cc1ccc(OP(=O)(Oc2ccc(C)cc2)Oc2ccc(C)cc2)cc1.Cc1ccc(OP(=O)(Oc2ccc(C)cc2)Oc2ccc(C)cc2)cc1.[Cl][Ni][Cl] ? 4.2

Could you tell me which growth inhibition is on file for CN(C)C(=O)Sc1c(Cl)cc(Cl)cc1S(=O)(=O)F ? 32.6

Could you tell me which growth inhibition is on file for O=c1cc(N2CCNCC2)nc2ccccn12 ? 1.4

###

Assay: NCI Yeast Anticancer Drug Screen. Data for the bub3 strain (AID 167)
Conditions: S. cerevisiae bub3 mutant strain, at 50.0 µM, stronger effect = higher value
This is part of a sample that, as a whole, favours compounds with a hit. Of some 79,000 tested, about 15% had one in any assay.
measurement-type: growth inhibition (%)
Dear colleague, please return just the value in %, with no unit written.

CCCCC[As](=O)(O)O	4.3
CC1C(C)(C)P(=O)(Oc2cccc3cccnc23)C1(C)C (stereo unspecified)	99
O=C(O)CCCc1ccc(N(CCCl)OCCCl)cc1	13.3

Could you tell me which growth inhibition is on file for CCCCCC(C)C1C(=O)NC(=O)NC1=O (stereo unspecified) ? 7.8

Could you tell me which growth inhibition is on file for C[N+](C)(C)CC1CCc2ccccc2C1=O (stereo unspecified) ? 40.5

Could you tell me which growth inhibition is on file for CCN1C(=O)NC(=O)C(C)(N2CCCCC2)C1=O (stereo unspecified) ? 10.7

Could you tell me which growth inhibition is on file for NC(=O)Cc1ccccc1 ? -2.45

Could you tell me which growth inhibition is on file for OCCSCSCCO ? -2.8

Could you tell me which growth inhibition is on file for C[N+]1([O-])C2CCC1CC(O)C2 (stereo unspecified) ? -2.5

FYI, the data here is from PubChem BioAssay (NCI).
